Quick list: Composite Z score, PDE4B3 per entry.
# TARGET UNDER TEST: PDE4B3 (Mus musculus, UniProt Q8VBU5)
# Construct: targets used in the assays are full-length proteins (as opposed to simply the catalytic domain); expressed in transfected cells; host or cells: Schizosaccharomyces pombe, PDE gene integrated in place of cgs2
# Sequence (Q8VBU5 1-721): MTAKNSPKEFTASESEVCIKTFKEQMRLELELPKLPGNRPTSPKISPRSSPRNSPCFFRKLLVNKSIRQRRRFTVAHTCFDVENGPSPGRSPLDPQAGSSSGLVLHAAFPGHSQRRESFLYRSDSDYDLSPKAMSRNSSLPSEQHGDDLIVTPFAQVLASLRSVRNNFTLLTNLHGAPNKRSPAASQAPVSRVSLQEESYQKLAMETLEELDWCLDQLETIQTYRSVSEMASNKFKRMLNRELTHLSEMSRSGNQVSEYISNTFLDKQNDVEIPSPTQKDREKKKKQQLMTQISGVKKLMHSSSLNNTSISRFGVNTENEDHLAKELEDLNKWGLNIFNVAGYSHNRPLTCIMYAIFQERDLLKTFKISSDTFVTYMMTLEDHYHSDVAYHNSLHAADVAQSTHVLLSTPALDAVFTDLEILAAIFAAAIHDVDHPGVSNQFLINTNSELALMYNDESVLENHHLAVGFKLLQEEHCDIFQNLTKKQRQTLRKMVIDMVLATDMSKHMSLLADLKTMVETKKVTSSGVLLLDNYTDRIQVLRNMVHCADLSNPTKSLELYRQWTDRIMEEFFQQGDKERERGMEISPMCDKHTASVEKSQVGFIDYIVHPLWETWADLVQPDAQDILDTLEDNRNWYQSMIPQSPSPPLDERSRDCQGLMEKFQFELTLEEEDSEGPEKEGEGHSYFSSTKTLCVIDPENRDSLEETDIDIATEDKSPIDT
# PROTOCOL NOTES: 5FOA growth assay in fission yeast strain expressing PDE4B3
# Assay type: cell-based, Murine
# MEASUREMENT SETUP: high throughput 5FOA growth screen
MEASURE NAME: Composite Z score, PDE4B3

molecule=Cc1sc2ncnc(Nc3ccccc3)c2c1C recorded_value=0.3426
molecule=CCN(CC)c1ncnc2sc(C(=O)N(C)C3CCCCC3)c(C)c12 recorded_value=5.3667
molecule=CCN(CC)c1ncnc2sc3c(c12)CCCC3 recorded_value=85.067
molecule=O=C(Nc1ncnc2sc3c(c12)CCCCC3)c1ccc(F)cc1 recorded_value=35.319
molecule=CCOC(=O)c1sc2nc(Cc3ccccc3)nc(NCCC3CCCCC3)c2c1C recorded_value=5.0875

====

# TARGET UNDER TEST: PDE4A1 (Mus musculus)
# Construct: targets used in the assays are full-length proteins (as opposed to simply the catalytic domain); expressed in transfected cells; host or cells: Schizosaccharomyces pombe, PDE gene integrated in place of cgs2
# Sequence (O89084 1-610 isoform O89084-2): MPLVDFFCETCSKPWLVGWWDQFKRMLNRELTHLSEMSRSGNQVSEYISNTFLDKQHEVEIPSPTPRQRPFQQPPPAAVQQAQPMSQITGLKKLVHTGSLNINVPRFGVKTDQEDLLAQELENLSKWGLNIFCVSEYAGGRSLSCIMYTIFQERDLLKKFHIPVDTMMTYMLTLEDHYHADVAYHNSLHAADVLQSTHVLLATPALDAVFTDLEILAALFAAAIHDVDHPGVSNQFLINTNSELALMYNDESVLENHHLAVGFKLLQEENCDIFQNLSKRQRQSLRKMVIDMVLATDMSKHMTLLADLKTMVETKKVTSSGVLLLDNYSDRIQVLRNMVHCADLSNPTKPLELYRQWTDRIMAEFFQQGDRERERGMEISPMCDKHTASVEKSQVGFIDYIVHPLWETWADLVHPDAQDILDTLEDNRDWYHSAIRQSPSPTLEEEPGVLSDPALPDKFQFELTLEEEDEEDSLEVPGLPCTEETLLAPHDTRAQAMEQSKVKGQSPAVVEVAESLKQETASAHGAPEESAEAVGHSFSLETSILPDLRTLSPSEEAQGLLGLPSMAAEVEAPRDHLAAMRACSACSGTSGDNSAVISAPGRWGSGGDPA
# PROTOCOL NOTES: 5FOA growth assay (high throughput screen, ED50) in fission yeast strain expressing PDE4A1
# Format: cell-based
# MEASUREMENT SETUP: high throughput 5FOA growth screen; greater than 8.53 = statistically-significant inhibitor
Quick list: Composite Z score, PDE4A1 per entry.
MEASURE NAME: Composite Z score, PDE4A1

molecule=Cc1c(C(=O)NCc2ccco2)sc2ncnc(N3CCc4ccccc4C3)c12 recorded_value=26.235
molecule=c1cncc(CNc2ncnc3sc4c(c23)CCCC4)c1 recorded_value=1.7161
molecule=CCN(CC)c1ncnc2sc(C(=O)N(C)C3CCCCC3)c(C)c12 recorded_value=7.0857
molecule=O=C(Nc1ncnc2sc3c(c12)CCC3)c1ccccc1 recorded_value=36.663
molecule=COc1ccccc1C(=O)Nc1ncnc2sc3c(c12)CCCC3 recorded_value=1.7784
molecule=CN(C)CCCNc1ncnc2sc3c(c12)CCCC3 recorded_value=1.6456
molecule="CCNc1nc(SCC(=O)OCC)nc2sc3c(c12)CCC(C)C3 (stereo not drawn)" recorded_value=3.7863
molecule="CCC1CCc2c(sc3ncnc(N4CCOCC4)c23)C1 (stereo not drawn)" recorded_value=50.594
molecule=COc1cccc(NC(=O)c2sc3ncnc(N4CCc5ccccc5C4)c3c2C)c1 recorded_value=19.619

====

Quick list: Composite Z score, PDE4B3 per entry.
# TARGET UNDER TEST: PDE4B3 (Mus musculus)
# Construct: targets used in the assays are full-length proteins (as opposed to simply the catalytic domain); expressed in transfected cells; host or cells: Schizosaccharomyces pombe, PDE gene integrated in place of cgs2
# PROTOCOL NOTES: 5FOA growth assay in fission yeast strain expressing PDE4B3
# Format: cell-based, Murine
# MEASUREMENT SETUP: high throughput 5FOA growth screen
MEASURE NAME: Composite Z score, PDE4B3

molecule="c1ccc(CNc2ncnc3sc4c(c23)CCCC4)cc1 [Compound 2077J03]" recorded_value=1.9013
molecule="Cc1nc(NCc2ccco2)c2c3c(sc2n1)CCC3 [Compound 1426I13]" recorded_value=−0.071
molecule="O=C(Nc1ncnc2sc3c(c12)CCCCC3)c1ccco1 [Compound 2084G06]" recorded_value=0.884
molecule="CC(C)C(Nc1ncnc2sc3c(c12)CCC3)C(=O)O (stereo not drawn) [Compound 1381A19]" recorded_value=0.2365
molecule="CCOC(=O)c1sc2nc(CC(=O)OC)nc(NCC(=O)OC)c2c1C [Compound 1379F18]" recorded_value=3.0462
molecule="O=C(O)CCNc1ncnc2sc3c(c12)CCCC3 [Compound 2012O16]" recorded_value=−0.716
molecule="COc1ccccc1CNC(=O)c1sc2ncnc(N3CCN(c4ccccc4F)CC3)c2c1C [2041 E21]" recorded_value=−0.408
molecule="Cc1sc2ncnc(N3CCN(c4cccc(C(F)(F)F)c4)CC3)c2c1C [Compound 2074G03]" recorded_value=−1.188
molecule="Cc1sc2ncnc(NCC(=O)O)c2c1C [Compound 2085F18]" recorded_value=0.8136
